- ASSAY COMMENT: KARI assay of purified S. exigua KARI and variants with NADH (Examples 6-9)
- Assay type: biochemical
RECORDED ENDPOINT: kcat NADH
Hi, when you answer, please include the unit after the number. Thanks!

Query string: Fill blank: measured kcat NADH of the molecule Se1_KARI^AC1: S. exigua KARI variant S63D, I95A (protein, UniProt D0WGK0 1-342, looked up, variant S63D I95A) Ketol-acid reductoisomerase …: MSVKTKEKEMAVTILYEQDVDPKVIQGLKVGIIGYGSQGHAHALNLMDSGVDVRVGLREGSSDWKTAEEAGLKVTDMDTAAEEADVIMVLVPDEAQPKVYQEHIAAHLKAGNTLAFAHGFNIHYGYIVPPEDVNVIMCAPKGPGHIVRRQFTEGSGVPDLACVQQDATGNAWDIVLSYCWGVGGARSGIIKATFAEETEEDLFGEQAVLCGGLVELVKAGFETLTEAGYPPELAYFECYHEMKMIVDLMYESGIHFMNYSISNTAEYGEYYAGPKVINEQSREAMKEILKRIQDGSFAQEFVDDCNNGHKRLLEQREAINTHPIETTGAQIRSMFSWIKKED is ____.
Result string: 0.5 s⁻¹
